# Test System: phosphoribosyl-ATP pyrophosphohydrolase/phosphoribosyl-AMP cyclohydrolase (AbHisIE) (Acinetobacter baumannii)
# Construct: full-length AbHisIE (A. baumannii strain ATCC17978), recombinant
# Sequence (V5VH18 1-257): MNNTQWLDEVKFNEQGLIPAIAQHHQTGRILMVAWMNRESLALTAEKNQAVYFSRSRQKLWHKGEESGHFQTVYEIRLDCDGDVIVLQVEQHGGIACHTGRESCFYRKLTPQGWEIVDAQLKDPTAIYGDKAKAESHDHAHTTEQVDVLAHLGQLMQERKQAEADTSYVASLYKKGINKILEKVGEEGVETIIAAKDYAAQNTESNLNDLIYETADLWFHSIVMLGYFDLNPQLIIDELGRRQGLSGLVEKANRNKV
# Procedure Text: initial rates of ProFAR formation from PRATP at […] nm, dose-response with purified AbHisIE

{"Compound Structure String": "N=c1c2ncn([C@@H]3O[C@H](COP(=O)(O)OP(=O)(O)O)[C@@H](O)[C@H]3O)c2ncn1[C@@H]1O[C@H](COP(=O)(O)O)[C@@H](O)[C@H]1O", "Unit Descriptor": "µM", "IC50": 52}
